Reference source for all entries: the RNAGym collection of RNA variant scans (doi:10.1073/pnas.2313332121)

I'd appreciate it if you could supply polymerase ribozyme fitness (log ratio) values for the items below.
B1: TPR 5TU (parent)
chain: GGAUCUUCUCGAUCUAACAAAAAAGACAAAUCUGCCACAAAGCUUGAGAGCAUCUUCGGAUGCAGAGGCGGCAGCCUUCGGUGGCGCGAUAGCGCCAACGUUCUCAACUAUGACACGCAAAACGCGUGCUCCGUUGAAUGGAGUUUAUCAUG

- Variants of: B1
- methodDescription: polymerase ribozyme fitness, log enrichment relative to wild type (log ratio); higher = more active; in vitro selection for triplet polymerase activity
Variants at the floor of the assay were thinned out.
# print the numeric value only

Inquiry: Please look at this variant and report its polymerase ribozyme fitness (log ratio): C76U C85G A147C
Reply text: -0.612

Inquiry: Tell me polymerase ribozyme fitness (log ratio) reported for U15G A98G A122C G124U
Reply text: -1.76

Inquiry: Find the measured polymerase ribozyme fitness (log ratio) of G94A A97U and report it.
Reply text: -1

Inquiry: Supply measured polymerase ribozyme fitness (log ratio) of U56A G65A G94C A150U in your reply.
Reply text: -1.57

Inquiry: Could you please provide reported polymerase ribozyme fitness (log ratio) for U31G U56A G136A A147C ? Thanks!
Reply text: -0.143

Inquiry: Find the measured polymerase ribozyme fitness (log ratio) of U15G C18U U56C G83A C87U and report it.
Reply text: -1.58

Inquiry: Using known records, supply polymerase ribozyme fitness (log ratio) for C32G G94A
Reply text: -3.8

Inquiry: Answer with the recorded polymerase ribozyme fitness (log ratio) of C10U G141A only.
Reply text: -2.07

Inquiry: Give polymerase ribozyme fitness (log ratio) for G50C C63G C96A C118U A119C
Reply text: -0.626

Inquiry: Please list polymerase ribozyme fitness (log ratio) recorded for the variant C32G A37G C95U
Reply text: -3.7

Inquiry: Find the measured polymerase ribozyme fitness (log ratio) of A37C C57A and report it.
Reply text: 0.0979

Inquiry: # return recorded polymerase ribozyme fitness (log ratio) for input C57U G92C A97C U145A
Reply text: 0.369

Inquiry: Please report the measured polymerase ribozyme fitness (log ratio) for A49U C116G C149U
Reply text: -4.18

Inquiry: Please list polymerase ribozyme fitness (log ratio) recorded for the variant U45A G92C U144A
Reply text: -3.41

Inquiry: Please supply the value of reported polymerase ribozyme fitness (log ratio) for the item C5G C54U U56A C99U
Reply text: -1.99

Inquiry: Tell me its polymerase ribozyme fitness (log ratio) given U55G U82G C85A A97C U104C G136U as the entry.
Reply text: -3.65

Inquiry: Given the variant G59A C85U , write its reported polymerase ribozyme fitness (log ratio).
Reply text: -1.79

Inquiry: Input U82A U146A , output reported polymerase ribozyme fitness (log ratio).
Reply text: -0.606

Inquiry: Give the reported polymerase ribozyme fitness (log ratio) for this variant. U56A C149U
Reply text: -0.627

Inquiry: Give the measured polymerase ribozyme fitness (log ratio) for `C5G`
Reply text: -0.157

Inquiry: Return the recorded polymerase ribozyme fitness (log ratio) value; entry: C18G U44A C96G G133A A137U
Reply text: -4.04

Inquiry: Indicate its recorded polymerase ribozyme fitness (log ratio); the variant in question is A21G A49U G50A
Reply text: -0.423

Inquiry: Supply recorded polymerase ribozyme fitness (log ratio) for U55A G84A G117U here.
Reply text: -0.634

Inquiry: Output measured polymerase ribozyme fitness (log ratio) for this item: A22C A137G
Reply text: -2.58

Inquiry: Kindly indicate its recorded polymerase ribozyme fitness (log ratio). Item: C27G G83A A89C
Reply text: -3.98

Inquiry: Item C57A U135C : provide polymerase ribozyme fitness (log ratio)
Reply text: -1.62

Inquiry: State its polymerase ribozyme fitness (log ratio): G94A A137C
Reply text: -3.2

Inquiry: For the variant G48C G94A , give its measured polymerase ribozyme fitness (log ratio) value.
Reply text: -0.224

Inquiry: Report polymerase ribozyme fitness (log ratio), nothing else, for this variant: U55A G84A G86A C93U C105U
Reply text: -1.1

Inquiry: Quickly give me recorded polymerase ribozyme fitness (log ratio) for U6C A21U U55A G58A G86A
Reply text: -3.18

Inquiry: Please list polymerase ribozyme fitness (log ratio) recorded for the variant C5G C96A G117A
Reply text: -0.406

Inquiry: Input C14G C95U , output reported polymerase ribozyme fitness (log ratio).
Reply text: -1.57

Inquiry: Output measured polymerase ribozyme fitness (log ratio) for this item: A16U C51U C95U
Reply text: -2.98

Inquiry: Return the recorded polymerase ribozyme fitness (log ratio) value; entry: A21G C93U
Reply text: -0.895

Inquiry: Give recorded polymerase ribozyme fitness (log ratio). A19U C63U C96U C105G C116A
Reply text: -2.98

Inquiry: Give the measured polymerase ribozyme fitness (log ratio) for C87U U151G
Reply text: -3.96
